assay: qHTS screen for small molecules that induce genotoxicity in human embryonic kidney (HEK293T) cells expressing luciferase-tagged ELG1; details: HEK293T ELG1-luciferase reporter, luminescence, 16 h; series mostly up to 46 µM; also: nearly all actives have a fitted effect of over 60% in size
The whole screen tested about 330,000 compounds, of which about 4,200 (1.3%) were called active. About 6% were inconclusive and are not listed. Calls follow the shape of the dose curve; as a rule, active = well fitted activation curve with a large enough effect; inconclusive = small, poorly fitted or top-dose-only effect; inactive = no such curve, though single readings can be large or run the other way. What follows is part of a selection rich in actives, with near analogues and random picks from the rest.
In this exercise, the only acceptable responses are active, inactive

Just curious, what result did CCNC(=S)N1CCN(S(=O)(=O)c2ccc(Cl)s2)CC1 get here?
inactive

###

assay: qHTS screen for small molecules that induce genotoxicity in human embryonic kidney (HEK293T) cells expressing luciferase-tagged ELG1; conditions: HEK293T ELG1-luciferase reporter, luminescence, 16 h; series mostly up to 46 µM; also: nearly all actives have a fitted effect of over 60% in size
In all, about 330,000 compounds went through this assay and about 4,200 (1.3%) were called active. Inconclusive results (about 6%) are left out. Calls come from the whole dose curve; as a rule, active = well fitted activation curve with a large enough effect; inconclusive = small, poorly fitted or top-dose-only effect; inactive = no such curve, though single readings can be large or run the other way. For the sample, actives were picked, then their nearest neighbours and some compounds at random.
Parameter call: string, one of active, inactive

Known results for compounds:
compound	assigned-class
CC1(C)C(c2cccs2)=[N+]([O-])C2(CCCCC2=O)N1O (stereo unspecified)	inactive
O=C(Cn1cnc2ccccc2c1=O)NNC(=O)c1ccccc1F	inactive
C/C(=N\O)C1(C)N(O)C(C)(C)C(c2ccc(Br)cc2)=[N+]1[O-] (stereo unspecified)	inactive

Hi, do you know how Cc1ccc(-c2nc3ccccc3[nH]2)cc1N came out in this test?
active

Would you mind telling me which call this test gave O=C(NOCc1ccccc1)c1cccc([N+](=O)[O-])c1 ?
inactive

Call for entry CC(=O)C1(C)N(O)C(C)(C)C(c2cccs2)=[N+]1[O-] (stereo unspecified) :
active
